system: PC-6; experiment: Concentration that inhibited the growth of PC-6/VCR29-9 cells by 50% at 72 hr continuous exposure; assay type: functional; conditions: Homo sapiens, PC-6, 72 h
Here the recorded GI50 is given for each entry.
QUANTITY KIND: GI50 (ng/mL)

# MOLECULE SMILES, QUANTITY KIND, ENDPOINT UNIT, READOUT VALUE
rows = [
    ("CC(=O)O[C@@]12CO[C@@H]1CC[C@@]1(C)[C@@H]3O[C@H](CN4CCOCC4)O[C@@H]3C3=C(C)[C@@H](OC(=O)[C@H](O)[C@@H](NC(=O)OC(C)(C)C)c4cscn4)C[C@@](O)([C@@H](OCc4ccccc4)[C@@H]12)C3(C)C", "GI50", "ng/mL", 1.02),
    ("CC(=O)O[C@@]12CO[C@@H]1CC[C@@]1(C)[C@@H]3O[C@H](CN(C)C)O[C@@H]3C3=C(C)[C@@H](OC(=O)[C@H](O)[C@@H](NC(=O)OC(C)(C)C)c4cscn4)C[C@@](O)([C@@H](OCc4ccccc4)[C@@H]12)C3(C)C", "GI50", "ng/mL", 1.1),
    ("CC(=O)O[C@@]12CO[C@@H]1CC[C@@]1(C)[C@@H]3O[C@H](CN(C)C)O[C@@H]3C3=C(C)[C@@H](OC(=O)[C@H](O)[C@@H](NC(=O)OC(C)(C)C)c4cncs4)C[C@@](O)([C@@H](OCc4ccccc4)[C@@H]12)C3(C)C", "GI50", "ng/mL", 1.63),
    ("CC(=O)O[C@@]12CO[C@@H]1CC[C@@]1(C)[C@@H]3O[C@H](CN4CCOCC4)O[C@@H]3C3=C(C)[C@@H](OC(=O)[C@H](O)[C@@H](NC(=O)OC(C)(C)C)c4cncs4)C[C@@](O)([C@@H](OCc4ccccc4)[C@@H]12)C3(C)C", "GI50", "ng/mL", 0.66),
]

Attribution: ChEMBL document CHEMBL1146649
